System: CCRF-SB, Human acute lymphoblastic leukemia
Experiment: MTT proliferation assay, CCRF-SB cells
Assay type: cell-based
Conditions: 3 replicates
Structures can show the parent of a compound that is named as a salt.
endpoint: IC50 (µM)
Quick note: give the figure in µM, leave out the unit.

// query IC50 value for entry NC(CC(=O)Nc1ccn([C@@H]2O[C@H](CO)C(O)C2O)c(=O)n1)C(=O)O (stereo partly shown) [Asp(Cytarabine)•Acetate salt form, Asp(Cytarabine).Acetate]
19

----------
Tested on: L1210 leukemia cancer cells
Assay: MTT proliferation assay, L1210 leukemia cancer cells
Format: cell-based
Settings: 72 hr incubation, formulated in saline, 6 replicates
Structures can show the parent of a compound that is named as a salt.
endpoint: IC50 (nM)
Quick note: give the figure in nM, leave out the unit.

Cl.NC(CC(=O)Nc1ccn([C@@H]2O[C@H](CO)C(O)C2O)c(=O)n1)C(=O)O (some centres unmarked) [Asp(Cytarabine)•hydrochloride salt form, Asp(Cytarabine).HCl]    240

// query IC50 value for entry NC(CC(=O)Nc1ccn([C@@H]2O[C@H](CO)C(O)C2O)c(=O)n1)C(=O)O (some centres unmarked) [Asp(Cytarabine)•Acetate salt form, Asp(Cytarabine).Acetate]
116

----------
System: Molt-4, Human acute lymphoblastic leukemia
Assay: MTT proliferation assay, Molt-4 cells
Format: cell-based
Conditions: 3 replicates
Structures can show the parent of a compound that is named as a salt.
endpoint: pIC50
The read-out pIC50 is expressed as -log10 of concentration in moles per litre.

Lab note: need pIC50 for NC(CC(=O)Nc1ccn([C@@H]2O[C@H](CO)C(O)C2O)c(=O)n1)C(=O)O (stereo partly shown) [Asp(Cytarabine)•Acetate salt form, Asp(Cytarabine).Acetate] on Molt-4, Human acute lymphoblastic leukemia, anyone have it?
7.92

----------
Test system: CCRF-CEM, Human acute lymphoblastic leukemia
Test: MTT proliferation assay, CCRF-CEM cells
Format: cell-based
Settings: 3 replicates
Counter-ions that a name gives are not always drawn.
endpoint: IC50 (nM)
Quick note: give the figure in nM, leave out the unit.

// query IC50 value for entry NC(CC(=O)Nc1ccn([C@@H]2O[C@H](CO)C(O)C2O)c(=O)n1)C(=O)O (stereo partly shown) [Asp(Cytarabine)•Acetate salt form, Asp(Cytarabine).Acetate]
23
